These measurements were taken from the NIST ThermoML archive (doi:10.1021/acs.jced.5b00980).

Assay: activity coefficient (dimensionless); of the first substance listed, at infinite dilution; xn = mol fraction of the nth substance listed
Conditions: 328.15 K; 100 kPa; Liquid; Chromatography; x1 = 0
The compounds listed here are annotated with their activity coefficient.

COMPOUND	activity coefficient
C1CCCC1 [cyclopentane] + CCCC[P+](CC)(CCCC)CCCC.CCOP(=O)([O-])OCC	1.83
CCCCC(C)=O [2-hexanone] + CCCC[P+](CC)(CCCC)CCCC.CCOP(=O)([O-])OCC	1.15
C1CCCCC1 [cyclohexane] + CCCC[P+](CC)(CCCC)CCCC.CCOP(=O)([O-])OCC	2.17
Cc1ccccc1 [toluene] + CCCC[P+](CC)(CCCC)CCCC.CCOP(=O)([O-])OCC	1.2
CC1CCCCC1 [methylcyclohexane] + CCCC[P+](CC)(CCCC)CCCC.CCOP(=O)([O-])OCC	2.62
CCCCCCC [heptane] + CCCC[P+](CC)(CCCC)CCCC.CCOP(=O)([O-])OCC	4.08
CCC(=O)CC [pentan-3-one] + CCCC[P+](CC)(CCCC)CCCC.CCOP(=O)([O-])OCC	1.02
C1CCCCCC1 [cycloheptane] + CCCC[P+](CC)(CCCC)CCCC.CCOP(=O)([O-])OCC	2.48
CCCC(=O)CC [3-hexanone] + CCCC[P+](CC)(CCCC)CCCC.CCOP(=O)([O-])OCC	1.23
CCc1ccccc1 [ethylbenzene] + CCCC[P+](CC)(CCCC)CCCC.CCOP(=O)([O-])OCC	1.55
Cc1cccc(C)c1 [1,3-dimethylbenzene] + CCCC[P+](CC)(CCCC)CCCC.CCOP(=O)([O-])OCC	1.7
CCCCCCCCC [nonane] + CCCC[P+](CC)(CCCC)CCCC.CCOP(=O)([O-])OCC	5.79

* * *

Test: activity coefficient (dimensionless); of the first substance listed, at infinite dilution; xn = mol fraction of the nth substance listed
Details: 358.15 K; 100 kPa; Liquid; Chromatography; x1 = 0
ASSAY_ENDPOINT: activity coefficient

COMPOUND	ASSAY_ENDPOINT	MEAS_VALUE
Cc1ccc(C)cc1 [1,4-dimethylbenzene] + CCCC[P+](CC)(CCCC)CCCC.CCOP(=O)([O-])OCC	activity coefficient	1.57
CCCOCCC [dipropyl ether] + CCCC[P+](CC)(CCCC)CCCC.CCOP(=O)([O-])OCC	activity coefficient	2.47
C=CCCCCC [1-heptene] + CCCC[P+](CC)(CCCC)CCCC.CCOP(=O)([O-])OCC	activity coefficient	2.93
CC#N [acetonitrile] + CCCC[P+](CC)(CCCC)CCCC.CCOP(=O)([O-])OCC	activity coefficient	0.468
CCCCCCCCC [nonane] + CCCC[P+](CC)(CCCC)CCCC.CCOP(=O)([O-])OCC	activity coefficient	5.27
C=CCCC [1-pentene] + CCCC[P+](CC)(CCCC)CCCC.CCOP(=O)([O-])OCC	activity coefficient	2.11
c1ccncc1 [pyridine] + CCCC[P+](CC)(CCCC)CCCC.CCOP(=O)([O-])OCC	activity coefficient	0.549
CCC[N+](=O)[O-] [1-nitropropane] + CCCC[P+](CC)(CCCC)CCCC.CCOP(=O)([O-])OCC	activity coefficient	0.523
C1COCCO1 [1,4-dioxane] + CCCC[P+](CC)(CCCC)CCCC.CCOP(=O)([O-])OCC	activity coefficient	1.03
C1CCCCCCC1 [cyclooctane] + CCCC[P+](CC)(CCCC)CCCC.CCOP(=O)([O-])OCC	activity coefficient	2.63
CCCCC(C)=O [2-hexanone] + CCCC[P+](CC)(CCCC)CCCC.CCOP(=O)([O-])OCC	activity coefficient	1.15
C=CCCCC [hex-1-ene] + CCCC[P+](CC)(CCCC)CCCC.CCOP(=O)([O-])OCC	activity coefficient	2.44
c1ccccc1 [benzene] + CCCC[P+](CC)(CCCC)CCCC.CCOP(=O)([O-])OCC	activity coefficient	0.847
C=Cc1ccccc1 [styrene] + CCCC[P+](CC)(CCCC)CCCC.CCOP(=O)([O-])OCC	activity coefficient	0.983
CCC(C)(C)C [2,2-dimethylbutane] + CCCC[P+](CC)(CCCC)CCCC.CCOP(=O)([O-])OCC	activity coefficient	3.14
C1CCCC1 [cyclopentane] + CCCC[P+](CC)(CCCC)CCCC.CCOP(=O)([O-])OCC	activity coefficient	1.74
CCCCCCCC [octane] + CCCC[P+](CC)(CCCC)CCCC.CCOP(=O)([O-])OCC	activity coefficient	4.47
O [water] + CCCC[P+](CC)(CCCC)CCCC.CCOP(=O)([O-])OCC	activity coefficient	0.112
C1=CCCCC1 [cyclohexene] + CCCC[P+](CC)(CCCC)CCCC.CCOP(=O)([O-])OCC	activity coefficient	1.65
CCOCC [diethyl ether] + CCCC[P+](CC)(CCCC)CCCC.CCOP(=O)([O-])OCC	activity coefficient	1.73
CCC(C)(C)OC [2-methoxy-2-methylbutane] + CCCC[P+](CC)(CCCC)CCCC.CCOP(=O)([O-])OCC	activity coefficient	2.02
